Experiment: Cell viability qHTS assay in S16 Pmp22-F2sN cells; further: nearly all actives have a fitted effect of over 65% in size
Conditions: S16 Pmp22-F2sN Schwann cells viability, CellTiter-Glo, 24 h; series mostly up to 57.5 µM
Description: Assay Provider: Jim Inglese Ph.D. National Center for Advancing Translational Science, National Institutes of Health, Rockville, MD CMT is a heterogeneous group of neurological disorders that affect approximately 1 in 2,500 people. […] Cell viability assay in S16 Pmp22-F2sN cells PROTOCOL TABLE (format as described by Inglese J, Shamu CE and Guy RK. 2007) SEQUENCE No. (e.g., 1, 2, 3, etc.); […] […] FLuc luminescence measured using CCD-based camera (Viewlux). […]
Hit rate of the full screen: of about 43,000 compounds, about 200 (0.47%) were called active. Not shown: some 12% with an inconclusive outcome. The call rests on the fitted dose curve; in most records, active means well fitted cell-killing curve with a large enough effect; inconclusive means small, poorly fitted or top-dose-only effect, or effect the other way; inactive means flat fitted curve, though single readings scatter. The sample holds actives, similar compounds and a random draw of the others, so the mix is not that of the screen.
Classes used: active, inactive

Cc1c2cnn(-c3ccccc3)c(=O)c2c(C)n1C(C)C(=O)Nc1ccc(Br)cc1F (centres undefined) ... inactive
COc1cccc(N2CCN(S(=O)(=O)c3cc(Br)cc4c3N(C(=O)C3CC3)CC4)CC2)c1 ... inactive
CCCCS(=O)(=O)c1oc(-c2cccs2)nc1S(=O)(=O)c1ccccc1 ... active
O=C(NCCc1ccc(Cl)cc1)c1ccc2c(c1)N(Cc1ccc(F)cc1)C(=O)CS2 ... inactive
COc1ccc(OC)c(CNC(=O)CN2C(=O)CCn3nc(-c4cn(C)c5ccccc45)cc32)c1 ... inactive
CC1=C(C(=O)Nc2ccccc2)C(c2ccc(C)cc2)n2nc(SCc3ccccc3C)nc2N1 (centres undefined) ... inactive
CNC(=O)CN1C(=O)c2cccnc2Sc2ccccc21 ... inactive
COC(=O)c1ccccc1NC(=O)Cn1c(=O)n(-c2cccc(C(F)(F)F)c2)c(=O)c2c(C)c(C)sc21 ... inactive
Cc1ccc2nc(COc3ccccc3NC(=O)Nc3ccc(F)c(Cl)c3)cc(=O)n2c1 ... inactive

###

assay: Cell viability qHTS assay in S16 Pmp22-F2sN cells; settings: S16 Pmp22-F2sN Schwann cells viability, CellTiter-Glo, 24 h; series mostly up to 57.5 µM; further: nearly all actives have a fitted effect of over 65% in size
Among all 43,000 compounds or so, about 200 (0.47%) were called active. Inconclusive results (about 12%) are left out. For the sample, actives were picked, then their nearest neighbours and some compounds at random.
quantity measured: outcome

CCOc1ccc(CNC(=O)c2cc(-c3ccc(Cl)s3)nc3ccccc23)cc1 ... inactive
CCC(CC)C(=O)N1CCc2cc(OC)c(OC)cc2C1COc1ccc(F)cc1 (stereo unspecified) ... inactive
CCCCCn1c(CCNC(=O)c2ccc(F)cc2)nc2ccccc21 ... inactive
CN(CC(=O)Nc1ccccc1F)S(=O)(=O)c1ccc2c(c1)c(=O)n(C)c(=O)n2C ... inactive
Cc1c(Cl)cccc1NC(=O)C(=O)NCCc1csc2nc(-c3ccccc3F)nn12 ... inactive
Cc1c(Cl)cccc1NC(=O)CCS(=O)(=O)c1ccc2c(c1)oc(=O)n2C ... inactive
Cc1ccc(C)c(N2CCN(C(=O)Cn3ncc4c(=O)oc5ccc(C)cc5c43)CC2)c1 ... inactive
Cc1cccc(C)c1Nc1c(-c2ccccc2O)nc2ncccn12 ... inactive
O=C(Nc1nnc(C2CC(=O)N(c3ccc(Cl)cc3)C2)s1)c1ccco1 (stereo unspecified) ... inactive
CCN(CCCNC(=O)Cn1ncc2c3ccccc3n(C)c2c1=O)Cc1ccccc1 ... inactive
CCOc1ccc(C(=O)c2cn(Cc3ccccc3OC)c3ccc(F)cc3c2=O)cc1 ... inactive
Cc1ccc(C(=O)Nc2c(C(=O)NC(C)(C)C)oc3ccccc23)cc1 ... inactive
COc1ccc(CCNC(=O)CCCn2c(=O)c3ccccc3n(Cc3ccc(C)cc3)c2=O)cc1OC ... inactive
CCOC(=O)c1c(NC(=O)/C=C/c2ccc(OC)cc2)sc2c1CCC(C)C2 (stereo unspecified) ... inactive
Cc1cccc(N2CCN(C(=O)c3cnc(N4CCCC4)nc3C)CC2)c1C ... inactive
CCOc1ccccc1CNC(=O)c1cnc2c(-c3ccc(OCC)c(OCC)c3)c(C)nn2c1C ... inactive
COC(=O)c1ccc(-c2nc3cc(NC(C)=O)ccc3o2)cc1 ... inactive
CCc1nnc(SCc2c(F)cccc2Cl)c2cc3sccc3n12 ... inactive
Cc1cc2nc(-c3ccc(NC(=O)c4cc5ccccc5o4)cc3)oc2cc1C ... inactive
Cc1ccc(N(CC(=O)NCc2ccc(Cl)cc2)S(=O)(=O)N(C)C)cc1 ... inactive
CCC(Sc1nc2n[nH]c(C)c2c(=N)n1-c1ccccc1Cl)C(=O)N(CC)CC (stereo unspecified) ... inactive

###

assay: Cell viability qHTS assay in S16 Pmp22-F2sN cells; details: S16 Pmp22-F2sN Schwann cells viability, CellTiter-Glo, 24 h; series mostly up to 57.5 µM; further: nearly all actives have a fitted effect of over 65% in size
Screen size: about 43,000 compounds; about 200 (0.47%) were called active. Another 12% or so got no clear call; they are omitted. The call rests on the fitted dose curve; in most records, active means well fitted cell-killing curve with a large enough effect; inconclusive means small, poorly fitted or top-dose-only effect, or effect the other way; inactive means flat fitted curve, though single readings scatter. Only a selection was taken, and actives are over-represented in it overall.
Possible outcomes: t (active), f (inactive)

COc1cc(CNC(=O)c2cc3n(n2)CCCN(Cc2cccc(F)c2)C3=O)cc(OC)c1OC ... f
CC(C)S(=O)(=O)c1oc(-c2ccc(F)cc2)nc1S(=O)(=O)c1ccc(F)cc1 ... t
CCCc1cc(=O)n2[nH]c(NCc3ccc(CC)cc3)nc2n1 ... f
CC(=O)N1CCCc2cc(S(=O)(=O)N3CCCC(C(=O)N4CCN(c5cccc(Cl)c5)CC4)C3)ccc21 (stereo not given) ... t
COc1ccc(N2CCN(c3nc(-c4ccccc4F)nc4ccccc34)CC2)cc1 ... f
O=C(CCC1N=C2c3ccccc3N=C(SCc3ccccc3F)N2C1=O)NCCc1ccccc1 (stereo not given) ... f
CCOc1cc(C2C(C(=O)Nc3ccc(OC)cc3)=C(C)Nc3nc(SC)nn32)ccc1O (stereo not given) ... f
CN(C)c1ccc(C(CNS(=O)(=O)c2cc(F)ccc2F)N2CCOCC2)cc1 (stereo not given) ... f
CCc1ccccc1NC(=O)Cc1ccc(NC(=O)N2CCCCc3ccccc32)cc1 ... f
O=C(NCc1ccc(F)cc1)c1ccc(Cn2c(SCc3ccc(F)cc3)nc3cccnc32)cc1 ... f
Cc1cccc(-n2ccnc2SCC(=O)Nc2cccc3ccccc23)c1C ... f
CCNS(=O)(=O)c1ccc(NC(=O)CSc2nc(-c3ccco3)cc(C(F)(F)F)n2)cc1 ... f
COc1cn(CC(=O)Nc2cccc(C)c2C)c(CN2CCCCC2)cc1=O ... f
COc1ccc(N2CCN(S(=O)(=O)c3ccc(-c4coc(C)n4)cc3)CC2)cc1 ... f
CCc1nn(CC(=O)N2CCN(c3ccc(Cl)cc3)CC2)c(=O)c2cc3occc3n12 ... f
O=C(Nc1ccc(Br)cc1)c1cc2nc(-c3ccccc3)cc(-c3ccccc3)n2n1 ... f
COc1cccc(CNC(=O)c2ccc3c(c2)N(Cc2ccc(C(F)(F)F)cc2)C(=O)c2ccccc2S3)c1OC ... f
CCN(CC)CCNC(=O)Cn1ncc2c3ccccc3n(Cc3ccccc3C)c2c1=O ... f
COc1ccc(NC(=O)Cn2c(=O)cc(C)c3c(C)nn(-c4cccc(Cl)c4C)c32)cc1OC ... f
COc1ccc(C(F)(F)F)cc1NC(=O)c1sc2nc(-c3cccs3)ccc2c1N ... f

###

assay: Cell viability qHTS assay in S16 Pmp22-F2sN cells; conditions: S16 Pmp22-F2sN Schwann cells (luciferase reporters placed in the Pmp22 gene) viability, CellTiter-Glo, 24 h; series mostly up to 57.5 µM; further: nearly all actives have a fitted effect of over 65% in size; further: potency means the concentration at half of the fitted maximal effect
Screen size: about 43,000 compounds; about 200 (0.47%) were called active. Not shown: some 12% with an inconclusive outcome. For the sample, actives were picked, then their nearest neighbours and some compounds at random.
quantity measured: Potency

COc1ccc(NC(=O)CN2C(=O)COc3ccc(S(=O)(=O)N4CCOCC4)cc32)cc1 ... inactive
Cc1ccc(C)c(NC(=O)CSC2=Nc3ccccc3N=C(c3ccc(F)cc3)C2)c1 ... inactive
CCOC(=O)c1ccc(NC(=O)Cn2cc(S(=O)(=O)Cc3ccccc3F)c3ccccc32)cc1 ... inactive
Cc1c(-c2cccc(NC(=O)C(C)(C)C)c2)nc2ncccn12 ... inactive
Cc1ccccc1NC(=O)Cn1c(=O)n(Cc2ccco2)c(=O)c2ccc(C(=O)NC3CCCC3)cc21 ... inactive
Cc1ccc(S(=O)(=O)n2nc(-c3ccc(Cl)cc3)nc2NCc2ccccc2)cc1 ... inactive
CCOc1cccc2c1N[C@@H](c1ccc(C(=O)O)cc1)[C@H]1CC=C[C@@H]21 ... inactive
COc1ccc(Cl)cc1NC(=O)CCn1c(=O)c2cccn2c2ccccc21 ... inactive
COc1ccc(Cl)cc1NC(=O)c1sc2nc3c(cc2c1N)CN(C)CC3 ... inactive
Cc1ccccc1NC(=O)Cn1c(=O)n(CC2CCC(C(=O)NCCc3ccccc3)CC2)c(=O)c2ccccc21 (stereo not given) ... inactive
O=c1cc(CSc2ncn[nH]2)[nH]c2ccc(F)cc12 ... inactive
CCN1CCN(c2ncc3c(n2)CC(c2ccccc2O)CC3=O)CC1 (stereo not given) ... inactive
Cc1ccc2nc(CN3CCN(S(=O)(=O)c4ccc(C)c(C)c4)CC3)oc2c1 ... inactive
COc1ccc(S(=O)(=O)c2c(Nc3ccc(C)cc3)sc(C(=O)c3ccc(C)cc3)c2N)cc1 ... inactive
COc1ccc(-c2onc(C)c2C)cc1S(=O)(=O)NCC1CCN(Cc2cccc(F)c2)CC1 ... inactive
COCCNC(=O)CSc1c(C)cnc2c1c(=O)n(C)c(=O)n2C ... inactive
O=C(CCn1c(=O)c2ccccc2n(Cc2ccc(Cl)cc2)c1=O)NCc1ccc2c(c1)OCO2 ... inactive
COc1ccc(C2NC(=O)N(C)C3=C2C(=O)N(c2ccc(C(=O)O)cc2)C3)cc1 (stereo not given) ... inactive
Cc1ccccc1NC(=O)c1cc2c([nH]c1=O)CC(C)(C)CC2=O ... inactive
COc1ccccc1NC(=O)c1sc2nc(C)c(C(=O)Nc3ccc(Cl)cc3)c(-c3ccc(Br)cc3)c2c1N ... 14.1 µM (active)
